Test system: U-2932
Experiment: growth inhibition by drug alone (1 - RLU/untreated control) (fraction); higher = stronger inhibition
Conditions: 1000 nM; time (day): 3; 177Lu-lilotomab satetraxetan 0 ug/ml
Dear colleague, classification is by growth inhibition by drug alone, with ranges listed here: low bin = under 0.009, mid bin = from 0.009 up to 0.1, high bin = 0.1 and over

As a guide, the following entries are already answered.
[[record]]
compound = "Cc1ccc(C(=O)N(CCCN)[C@@H](c2nc3cc(Cl)ccc3c(=O)n2Cc2ccccc2)C(C)C)cc1"
label = "high bin"

[[record]]
compound = "CC(=O)O[C@H]1C(=O)[C@@]2(C)[C@H]([C@H](OC(=O)c3ccccc3)[C@]3(O)C[C@H](OC(=O)[C@H](O)[C@@H](NC(=O)c4ccccc4)c4ccccc4)C(C)=C1C3(C)C)[C@]1(OC(C)=O)CO[C@@H]1C[C@@H]2O"
label = "high bin"

[[record]]
compound = "CCCCCCCc1ccc(CCc2cccc(O)c2C(=O)O)cc1"
label = "mid bin"

[[record]]
compound = "CC[C@H](CO)Nc1nc(NCc2ccccc2)c2ncn(C(C)C)c2n1 [Roscovitine (Seliciclib, CYC202)]"
label = "low bin"

[[record]]
compound = "Nc1nc(F)nc2c1ncn2[C@@H]1O[C@H](CO)[C@@H](O)[C@@H]1O"
label = "mid bin"


Q: Hi there! Could you help me figure out the category for `Nc1nc(OCc2cc(Br)cs2)c2[nH]cnc2n1` please?
A: low bin

Q: Hi there! Could you help me figure out the category for `O=c1[nH]cc(F)c(=O)[nH]1` please?
A: mid bin

Q: Hi there! Could you help me figure out the category for `Cc1ccc(C(=O)N(CCCN)[C@@H](c2oc3cc(Cl)ccc3c(=O)c2Cc2ccccc2)C(C)C)cc1` please?
A: high bin

====

Test system: RIVA
Experiment: growth inhibition by drug alone (1 - RLU/untreated control) (fraction); higher = stronger inhibition
Settings: 10 nM; time (day): 6; 177Lu-lilotomab satetraxetan 0 ug/ml
Endpoint label: growth inhibition by drug alone
I only need the number, thanks.

In the examples that follow, each entry is paired with its recorded growth inhibition by drug alone.
[[record]]
molecule = "Cc1ccc([N+](=O)[O-])cc1S(=O)(=O)N(C)/N=C/c1cnc2ccc(Br)cn12"
system_under_test = "RIVA"
measured_number = -0.15

[[record]]
molecule = "Cc1ccc([C@@H]2O[C@H](CO)[C@@H](O)[C@H](O)[C@H]2O)cc1Cc1ccc(-c2ccc(F)cc2)s1"
system_under_test = "RIVA"
measured_number = -0.215

[[record]]
molecule = "CC(C)C(=O)Nc1ccc([N+](=O)[O-])c(C(F)(F)F)c1 [Flutamide (Eulexin)]"
system_under_test = "RIVA"
measured_number = -0.0242

[[record]]
molecule = "Cc1oc(S(=O)(=O)N2CCCCC2)cc1NC(=O)Nc1ccccc1"
system_under_test = "RIVA"
measured_number = -0.188

[[record]]
molecule = "Nc1cc(C(F)(F)F)c(-c2cc(N3CCOCC3)nc(N3CCOCC3)n2)cn1"
system_under_test = "RIVA"
measured_number = -0.377


Q: Which growth inhibition by drug alone is listed for `Nc1ccn([C@@H]2O[C@H](CO)[C@@H](O)[C@@H]2O)c(=O)n1` ?
A: -0.326

====

Tested on: U-2932
Experiment: growth inhibition by drug alone (1 - RLU/untreated control) (fraction); higher = stronger inhibition
Conditions: 10 nM; time (day): 5; 177Lu-lilotomab satetraxetan 0 ug/ml
Where a name gives a salt, the structure may show the parent alone.
Endpoint label: growth inhibition by drug alone
I only need the number, thanks.

[[record]]
compound = "Cc1oc(S(=O)(=O)N2CCCCC2)cc1NC(=O)Nc1ccccc1"
measured_number = -0.0595


Q: Which growth inhibition by drug alone is listed for CN(C)CCOc1ccc(/C(=C(/CCCl)c2ccccc2)c2ccccc2)cc1 [Toremifene Citrate (Fareston, Acapodene)] ?
A: -0.00292

Q: Which growth inhibition by drug alone is listed for `Nc1ncn([C@H]2C[C@H](O)[C@@H](CO)O2)c(=O)n1` ?
A: -0.0105

Q: Which growth inhibition by drug alone is listed for `COCC[n+]1c2c(n(Cc3cnccn3)c1C)C(=O)c1ccccc1C2=O` ?
A: 0.963

Source: the supplement of paper PMC6897291
